tested on: human maximum recommended daily dose, FDA database; experiment: DSSTox (FDAMDD) FDA Maximum (Recommended) Daily Dose Database; conditions: TherapeuticCategory: expectorant; mucolytic; stronger effect = lower value
measured_endpoint: maximum recommended daily dose (mmol/kg-bw/day)

{"columns": ["chemical_string", "val"],
 "data": [
  ["CN(Cc1cc(Br)cc(Br)c1N)C1CCCCC1", 0.00213]
]}

====

test system: human maximum recommended daily dose, FDA database; test: DSSTox (FDAMDD) FDA Maximum (Recommended) Daily Dose Database; conditions: TherapeuticCategory: anticonvulsant; analgesic; antipyretic; stronger effect = lower value
measured_endpoint: maximum recommended daily dose (mmol/kg-bw/day)

{"columns": ["chemical_string", "val"],
 "data": [
  ["CCOc1ccc(NC(C)=O)cc1", 0.279]
]}
